Target: human Factor IXa (human, UniProt P00740 47-191; P00740 227-461)
Assay: cell-based or functional assay
Square brackets hold non-standard residues; d marks the D form. Ends that are not written are not given here.
Assignment: determine reported EC50 [µM], FXa generation assay for the given binders.

Q: Fill in the blank: the reported EC50 [µM], FXa generation assay of GASGRRRTCVASYCLLFQSGLP is ____.
Result: > 25 µM

Q: Fill in the blank: the reported EC50 [µM], FXa generation assay of LRQRLAKTCVASYCWLFSLVAS is ____.
Result: > 10 µM

Q: Fill in the blank: the reported EC50 [µM], FXa generation assay of RRAPGKLTCLA[dS]YCWLFWTGIA (not fully specified (bridges); printed as RRAPGKLTCLAsYCWLFWTGIA; cysteine pairing not given here) [RRAPGKLTCLAsYCWLFWTGIA] is ____.
Result: < 0.5 µM
